Experiment: NCI Yeast Anticancer Drug Screen. Data for the mlh1 rad18 strain (AID 175)
Conditions: S. cerevisiae mlh1 rad18 strain growth inhibition; at 50.0 µM; stronger effect = higher value
Compounds without any hit were thinned out: in the full panel of roughly 79,000, 15% have a hit.
Threshold check on growth inhibition: at or above 90% gives MET, strictly below gives NOT MET.

Compound	Cat
COc1ccc(C2C3=C(CCC(CN(C)C)C3=O)OC3=C2C(=O)C(CN(C)C)CC3)cc1 (configuration not stated)	NOT MET
C=C1CC(C)(COc2ccc3c(C)c(C)c(=O)oc3c2C)OC1=O (configuration not stated)	NOT MET
COc1ccc([N+](=O)[O-])cc1[I+]c1cc([N+](=O)[O-])ccc1OC	MET
O=C(Cc1ccc2c(c1)OCO2)c1ccc(O)cc1O	MET
c1coc(C2=Nc3cccc4cccc(c34)N2)c1	NOT MET
Nc1ccc(S(=O)(=O)O)c2cccc(S(=O)(=O)O)c12	NOT MET
N#CSCc1ccc(Cl)c(CSC#N)c1	MET
CCC[CH2][Sn]([CH2]CCC)([O]C(=O)c1cccc(F)c1)[O]C(=O)c1cccc(F)c1	NOT MET
Nc1ccc2c(c1)[nH]c(=O)c1cccc(Cl)c12	MET
Cc1ccc(S(=O)(=O)Nc2ccccc2Cl)cc1	MET
CCCCCCCCCCCCCCCCCO	NOT MET
CNC(=O)c1ccc(OC)cc1C1(O)c2ccccc2CCc2ccccc21	NOT MET
CCCCCCC(O)C(CO)CCCCC (configuration not stated)	MET
Cn1c(-c2ccc(/C=N/NC(N)=NCCCCCCN=C(N)N/N=C/c3ccc(-c4c[n+]5ccccc5n4C)cc3)cc2)c[n+]2ccccc12	MET
CN(C)c1ccc(C2C=C(c3ccccc3)Oc3ccccc32)cc1 (configuration not stated)	MET
NC(CCC(=O)NC(CS(=O)(=O)O)C(=O)O)C(=O)O (configuration not stated)	NOT MET
COc1ccc2c(c1)C(=O)C(Br)CC2 (configuration not stated)	NOT MET
CNC(=O)N1N[C@H](c2ccccc2)[C@@H]1c1ccccc1	NOT MET
O=C1c2ccccc2C(c2ccccc2)(c2ccccc2)N1c1ccccc1	MET
